B1: Lysozyme C, P61626 (parent)
chain: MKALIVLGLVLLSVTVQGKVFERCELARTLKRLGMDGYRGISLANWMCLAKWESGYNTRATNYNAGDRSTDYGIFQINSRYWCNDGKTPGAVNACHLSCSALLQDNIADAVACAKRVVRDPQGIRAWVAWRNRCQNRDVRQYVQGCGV

Variants of: B1
Conditions: Homo sapiens; pH 2.7; Thermal; DSC; glycine 0.05 M; reversible: yes; structure 1LZ1; whole UniProt chain shown
Measured metric: unfolding enthalpy (calorimetric) (kcal/mol)

Mutation notation	Measured metric	Endpoint value
V92A	unfolding enthalpy (calorimetric)	114
V111A	unfolding enthalpy (calorimetric)	112
V148A	unfolding enthalpy (calorimetric)	111
V118A	unfolding enthalpy (calorimetric)	110
V20A	unfolding enthalpy (calorimetric)	112
V139A	unfolding enthalpy (calorimetric)	110
V128A	unfolding enthalpy (calorimetric)	116
V143A	unfolding enthalpy (calorimetric)	113
V117A	unfolding enthalpy (calorimetric)	111
